Values from ChEMBL document CHEMBL1255224

Tested on: Brain
Test: Drug level in C57BL/6NT wild type mouse brain at 100 mg/kg, po
Type: ADME, organism-based
Set-up: dose 100 mg/kg, route oral
Details: in vivo, read-out: Activity
Property Name: concentration
Kindly report the value followed by its unit.

C[C@@H](c1ccc(-c2ccccc2)cc1)[C@H](NC(=O)C(C)(C)N)C(=O)N1CCC[C@H]1c1nc2cc(Cl)c(Cl)cc2[nH]1 has a reported concentration of 50 nM

====

Field: Vd. Provide a value for each of the compounds that follow.
Assay: Volume of distribution in mouse
Type: ADME, organism-based
Settings: in vivo
Give bare numbers, in L/kg.

| Entry Smiles | Measure Unit | Test Value |
| --- | --- | --- |
| CC(C)(O)C(=O)N[C@@H](Cc1ccc(-c2ccccc2)cc1)C(=O)N1CCC[C@H]1c1nc2cc(F)c(F)cc2[nH]1 | L/kg | 1.5 |
| C[C@@H](c1ccccc1)[C@H](NC(=O)C(C)(C)N)C(=O)N1CCC[C@H]1c1nc2cc(Cl)c(Cl)cc2[nH]1 | L/kg | 1.5 |
| CC(C)(Cc1ccc(-c2ccccc2)cc1)C(=O)N1CCC[C@H]1c1nc(-c2cccc(F)c2)c[nH]1 | L/kg | 8.8 |

Cc1ccccc1-c1c[nH]c([C@@H]2CCCN2C(=O)COc2ccc(-c3ccccc3)cc2)n1 has a reported Vd of 4

====

Target: Lysosomal Pro-X carboxypeptidase (Mus musculus, UniProt Q7TMR0)
Sequence (Q7TMR0 whole entry): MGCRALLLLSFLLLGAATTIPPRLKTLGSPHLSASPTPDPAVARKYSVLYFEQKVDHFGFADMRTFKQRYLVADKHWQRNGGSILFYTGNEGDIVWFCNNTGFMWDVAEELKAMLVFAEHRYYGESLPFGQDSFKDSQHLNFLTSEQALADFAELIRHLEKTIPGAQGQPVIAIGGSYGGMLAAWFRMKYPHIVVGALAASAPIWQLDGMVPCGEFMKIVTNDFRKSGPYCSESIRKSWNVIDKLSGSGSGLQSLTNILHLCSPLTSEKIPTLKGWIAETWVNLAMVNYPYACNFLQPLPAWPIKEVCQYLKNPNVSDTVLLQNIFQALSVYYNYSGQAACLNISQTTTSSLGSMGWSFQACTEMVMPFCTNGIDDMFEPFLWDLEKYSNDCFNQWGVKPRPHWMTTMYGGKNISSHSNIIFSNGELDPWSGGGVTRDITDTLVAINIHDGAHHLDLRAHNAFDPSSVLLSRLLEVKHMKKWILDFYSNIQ
Experiment: Inhibition of mouse PrCP by FRET in presence of 1% mouse serum albumin
Property Name: pIC50
Answers are plain numbers, as −log10 of the molar value.

# count of solved cases: 3
| Entry Smiles | pIC50 |
| --- | --- |
| CC(C)(O)C(=O)N[C@@H](Cc1ccc(-c2ccccc2)cc1)C(=O)N1CCC[C@H]1c1ncc(C(C)(C)C)[nH]1 | 7.82 |
| CC(C)(N)C(=O)N[C@@H](Cc1ccc(-c2ccccc2)cc1)C(=O)N1CCC[C@H]1c1nc2cc(Cl)c(Cl)cc2[nH]1 | 6.10 |
| COc1ccc(C[C@H](NC(=O)C(C)(C)N)C(=O)N2CC[C@H]2c2nc3cc(Cl)c(Cl)cc3[nH]2)cc1 | 5.48 |

Field: next compound
CC(C)(N)C(=O)N[C@@H](Cc1ccc(-c2ccccc2)cc1)C(=O)N1CCC[C@H]1c1ncc(C(C)(C)C)[nH]1 has a reported pIC50 of 7.77

====

Field: half-life. Provide a value for each of the compounds that follow.
Assay: Half life in mouse
Type: ADME, organism-based
Settings: in vivo
Answers are plain numbers, in h.

# count of solved cases: 3
| Entry Smiles | Measure Unit | half-life |
| --- | --- | --- |
| CC(C)(Cc1ccc(-c2ccccc2)cc1)C(=O)N1CCC[C@H]1c1nc(-c2cccc(F)c2)c[nH]1 | h | 2.3 |
| Cc1ccccc1-c1c[nH]c([C@@H]2CCCN2C(=O)COc2ccc(-c3ccccc3)cc2)n1 | h | 3.4 |
| CC(C)(Cc1ccc(-c2cccc(Cl)c2Cl)cc1)C(=O)N1CC(F)(F)C[C@H]1c1ncc(-c2cccc(Br)c2)[nH]1 | h | 9.6 |

Please go through the list and note half-life for each compound.
1. CC(C)(CN)C(=O)N[C@@H](Cc1ccc(-c2ccccc2)cc1)C(=O)N1CCC[C@H]1c1nc2cc(Cl)c(Cl)cc2[nH]1
2. CC(C)(O)C(=O)N[C@@H](Cc1ccc(-c2ccccc2)cc1)C(=O)N1CCC[C@H]1c1ncc(C(C)(C)C)[nH]1
3. Cn1cc(-c2ccc(C[C@H](NC(=O)C(C)(C)N)C(=O)N3CCC[C@H]3c3nc4cc(Cl)c(Cl)cc4[nH]3)cc2)ccc1=O
4. CC(C)(N)C(=O)N[C@@H](Cc1ccc(-c2ccccc2)cc1)C(=O)N1CCC[C@H]1c1nc2cc(Cl)c(Cl)cc2[nH]1
5. Cc1cccc2[nH]c([C@@H]3[C@@H]4C[C@@H]4CN3C(=O)COc3ccc(-c4ccccc4)cc3)nc12
6. CC(C)(N)C(=O)N[C@@H](Cc1ccc(-c2ccccc2)cc1)C(=O)N1CCC[C@H]1c1ncc(C(C)(C)C)[nH]1

Result:
1. 4.3
2. 0.4
3. 2.6
4. 2.8
5. 0.6
6. 15

Please go through the list and note half-life for each compound.
1. N#Cc1cccc(-c2ccc(CCC(=O)N3C[C@H](O)C[C@H]3c3nc(-c4cccc(Cl)c4)c[nH]3)cc2)c1
2. CC(C)(N)CC(=O)N[C@@H](Cc1ccc(-c2ccccc2)cc1)C(=O)N1CCC[C@H]1c1nc2cc(Cl)c(Cl)cc2[nH]1
3. CC(C)(O)C(=O)N[C@@H](Cc1ccc(-c2ccccc2)cc1)C(=O)N1CCC[C@H]1c1nc2cc(F)c(F)cc2[nH]1
4. C[C@@H](c1ccc(-c2ccccc2)cc1)[C@H](NC(=O)C(C)(C)N)C(=O)N1CCC[C@H]1c1nc2cc(Cl)c(Cl)cc2[nH]1

Result:
[0.6, 5.2, 0.5, 2.3]

====

Assay: Volume of distribution in mouse
Type: ADME, organism-based
Settings: in vivo
Note to self: values exactly at 5 L/kg are label 1. So Vd at or above 5 L/kg is label 1, below is label 0.

Please review the entries below; each comes with its answer.
| Entry Smiles | Group |
| --- | --- |
| CC(C)(N)C(=O)N[C@@H](Cc1ccc(-c2ccccc2)cc1)C(=O)N1CCC[C@H]1c1nc2cc(Cl)c(Cl)cc2[nH]1 | label 0 |
| CC(C)(CN)C(=O)N[C@@H](Cc1ccc(-c2ccccc2)cc1)C(=O)N1CCC[C@H]1c1nc2cc(Cl)c(Cl)cc2[nH]1 | label 1 |
| Cn1cc(-c2ccc(C[C@H](NC(=O)C(C)(C)N)C(=O)N3CCC[C@H]3c3nc4cc(Cl)c(Cl)cc4[nH]3)cc2)ccc1=O | label 1 |

Problem: Quick check, Vd >= 5 L/kg? O=C(CCc1ccc(-c2ccccc2)cc1)N1CCC[C@H]1c1ncc(-c2cccc(F)c2)[nH]1
Result: label 0

Problem: Quick check, Vd >= 5 L/kg? CC(C)(N)C(=O)N[C@@H](Cc1ccc(-c2ccccc2)cc1)C(=O)N1CCC[C@H]1c1ncc(C(C)(C)C)[nH]1
Result: label 1

Problem: Quick check, Vd >= 5 L/kg? CC(C)(N)C(=O)N[C@@H](Cc1ccc(Cl)cc1)C(=O)N1CCC[C@H]1c1nc2cc(Cl)c(Cl)cc2[nH]1
Result: label 0

Problem: Quick check, Vd >= 5 L/kg? C[C@@H](c1ccc(-c2ccc(F)cc2)cc1)[C@H](NC(=O)C(C)(C)O)C(=O)N1CCC[C@H]1c1nc2cc(Cl)c(Cl)cc2[nH]1
Result: label 0

====

Assay: Volume of distribution in mouse
Format: ADME, organism-based
Details: in vivo
Field: Vd. Provide a value for each of the compounds that follow.
Kindly report the value followed by its unit.

| Entry Smiles | Vd |
| --- | --- |
| CC(C)(O)C(=O)N[C@@H](Cc1ccc(-c2ccccc2)cc1)C(=O)N1CCC[C@H]1c1ncc(C(C)(C)C)[nH]1 | 2.9 L/kg |
| CC(C)(Cc1ccc(-c2cccc(Cl)c2Cl)cc1)C(=O)N1CC(F)(F)C[C@H]1c1ncc(-c2cccc(Br)c2)[nH]1 | 4 L/kg |
| COc1ccc(C[C@H](NC(=O)C(C)(C)N)C(=O)N2CC[C@H]2c2nc3cc(Cl)c(Cl)cc3[nH]2)cc1 | 2.2 L/kg |

Field: next compound
C[C@@H](c1ccccc1)[C@H](NC(=O)C(C)(C)O)C(=O)N1CCC[C@H]1c1nc2cc(Cl)c(Cl)cc2[nH]1 has a reported Vd of 2.4 L/kg

====

Field: bioavailability. Provide a value for each of the molecules that follow.
Assay: Oral bioavailability in mouse
Format: ADME, organism-based
Settings: in vivo
Kindly report the value followed by its unit.

| Entry Smiles | Property Name | Test Value |
| --- | --- | --- |
| COc1ccc(C[C@H](NC(=O)C(C)(C)N)C(=O)N2CC[C@H]2c2nc3cc(Cl)c(Cl)cc3[nH]2)cc1 | bioavailability | 33% |
| C[C@@H](c1ccccc1)[C@H](NC(=O)C(C)(C)O)C(=O)N1CCC[C@H]1c1nc2cc(Cl)c(Cl)cc2[nH]1 | bioavailability | 4% |
| CC(C)(N)C(=O)N[C@@H](Cc1ccc(-c2ccccc2)cc1)C(=O)N1CCC[C@H]1c1nc2cc(Cl)c(Cl)cc2[nH]1 | bioavailability | 31% |
| Cc1cccc2[nH]c([C@@H]3[C@@H]4C[C@@H]4CN3C(=O)COc3ccc(-c4ccccc4)cc3)nc12 | bioavailability | 20% |
| CC(C)(O)C(=O)N[C@@H](Cc1ccc(-c2ccccc2)cc1)C(=O)N1CCC[C@H]1c1nc2cc(F)c(F)cc2[nH]1 | bioavailability | 9% |
| N#Cc1cccc(-c2ccc(CCC(=O)N3C[C@H](O)C[C@H]3c3nc(-c4cccc(Cl)c4)c[nH]3)cc2)c1 | bioavailability | 1% |
| CC(C)(N)CC(=O)N[C@@H](Cc1ccc(-c2ccccc2)cc1)C(=O)N1CCC[C@H]1c1nc2cc(Cl)c(Cl)cc2[nH]1 | bioavailability | 0% |
| C[C@@H](c1ccc(-c2ccc(F)cc2)cc1)[C@H](NC(=O)C(C)(C)O)C(=O)N1CCC[C@H]1c1nc2cc(Cl)c(Cl)cc2[nH]1 | bioavailability | 12% |
| CC(C)(CN)C(=O)N[C@@H](Cc1ccc(-c2ccccc2)cc1)C(=O)N1CCC[C@H]1c1nc2cc(Cl)c(Cl)cc2[nH]1 | bioavailability | 0% |
| CC(C)(Cc1ccc(-c2ccccc2)cc1)C(=O)N1CCC[C@H]1c1nc(-c2cccc(F)c2)c[nH]1 | bioavailability | 5% |

Field: next molecule
O=C(CCc1ccc(-c2ccccc2)cc1)N1CCC[C@H]1c1ncc(-c2cccc(F)c2)[nH]1 has a reported bioavailability of 5%
